- assay.overview: Cmax in C57BL/6 mouse plasma at 5 mg/kg, po
- Assay type: ADME, organism-based
- Parameters: dose 5 mg/kg, route oral
readout.kind: Cmax (ng/mL)
Write the value in ng/mL as a bare number.

Assign Cmax to the following record: "CCC[C@@H](CCO)Nc1nc(N)nc2c1CN(C(=O)c1csc(C)n1)CC2" 29

---

- system: Toll-like receptor 7 (Homo sapiens) (UniProt Q9NYK1)
- Sequence (Q9NYK1 whole entry): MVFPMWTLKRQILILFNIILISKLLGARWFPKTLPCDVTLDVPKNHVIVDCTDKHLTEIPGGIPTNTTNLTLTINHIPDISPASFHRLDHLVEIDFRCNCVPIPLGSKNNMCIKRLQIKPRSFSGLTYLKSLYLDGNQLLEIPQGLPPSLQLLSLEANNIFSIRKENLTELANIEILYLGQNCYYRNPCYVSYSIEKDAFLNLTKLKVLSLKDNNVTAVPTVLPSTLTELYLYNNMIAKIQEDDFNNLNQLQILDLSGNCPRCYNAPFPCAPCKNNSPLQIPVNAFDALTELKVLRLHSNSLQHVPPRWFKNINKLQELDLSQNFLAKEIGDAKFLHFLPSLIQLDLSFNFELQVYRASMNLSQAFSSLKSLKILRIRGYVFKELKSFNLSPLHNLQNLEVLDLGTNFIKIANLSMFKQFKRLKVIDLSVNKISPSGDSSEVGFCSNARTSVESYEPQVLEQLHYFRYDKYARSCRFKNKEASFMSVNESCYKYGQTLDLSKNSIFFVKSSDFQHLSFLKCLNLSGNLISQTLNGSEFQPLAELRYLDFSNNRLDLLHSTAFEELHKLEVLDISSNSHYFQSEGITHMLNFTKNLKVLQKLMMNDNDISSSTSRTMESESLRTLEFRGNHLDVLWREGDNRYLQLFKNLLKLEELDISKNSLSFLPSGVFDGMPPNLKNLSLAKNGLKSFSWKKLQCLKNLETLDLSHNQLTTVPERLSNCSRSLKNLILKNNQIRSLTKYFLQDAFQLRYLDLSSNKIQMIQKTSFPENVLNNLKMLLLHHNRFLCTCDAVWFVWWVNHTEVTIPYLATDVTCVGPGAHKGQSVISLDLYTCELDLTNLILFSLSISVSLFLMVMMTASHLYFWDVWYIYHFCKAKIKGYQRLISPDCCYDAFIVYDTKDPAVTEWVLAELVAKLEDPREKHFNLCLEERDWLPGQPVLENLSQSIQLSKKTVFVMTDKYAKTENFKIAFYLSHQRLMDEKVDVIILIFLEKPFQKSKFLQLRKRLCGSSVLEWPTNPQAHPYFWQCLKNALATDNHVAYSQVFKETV
- assay.overview: Agonist activity at human TLR7 expressed in HEK293 cells after 6 hrs by NFkappaB-luciferase reporter gene assay
- Type: cell-based
Decision: MEC beneath 4 µM gives rule met; MEC meeting or exceeding 4 µM gives rule not met.

Lab note: MEC threshold 4 µM. Does this compound come in strictly under it? "CCCCNc1nc(N)nc2c1CN(C(=O)c1cccs1)CC2" rule met

Lab note: MEC threshold 4 µM. Does this compound come in strictly under it? "CCCCNc1nc(N)nc2c1CCN(Cc1ccccc1)C2" rule not met

Lab note: MEC threshold 4 µM. Does this compound come in strictly under it? "CCCCNc1nc(N)nc2c1CCN(C(C)=O)C2" rule not met

Lab note: MEC threshold 4 µM. Does this compound come in strictly under it? "CCC[C@@H](CCO)Nc1nc(N)nc2c1CN(C(=O)c1csc(C)n1)CC2" rule met

Lab note: MEC threshold 4 µM. Does this compound come in strictly under it? "CCCCNc1nc(N)nc2c1CCN(C)C2" rule not met

Lab note: MEC threshold 4 µM. Does this compound come in strictly under it? "CCCCNc1nc(N)nc2c1CN(Cc1ccco1)CC2" rule met

Lab note: MEC threshold 4 µM. Does this compound come in strictly under it? "CCCCNc1nc(N)nc2c1CN(S(C)(=O)=O)CC2" rule not met

Lab note: MEC threshold 4 µM. Does this compound come in strictly under it? "CCCCNc1nc(N)nc2c1CN(Cc1ccc(OC)cc1)CC2" rule met

Lab note: MEC threshold 4 µM. Does this compound come in strictly under it? "CCCC[C@@H](CCO)Nc1nc(N)nc2c1CN(C(=O)c1csc(C)n1)CC2" rule met

Lab note: MEC threshold 4 µM. Does this compound come in strictly under it? "CCCCNc1nc(N)nc2c1CN(Cc1ccccc1Cl)CC2" rule met

Lab note: MEC threshold 4 µM. Does this compound come in strictly under it? "CCCCNc1nc(N)nc2c1CN(Cc1ccccc1)CC2" rule met

Lab note: MEC threshold 4 µM. Does this compound come in strictly under it? "CCCCNc1nc(N)nc2c1CN(Cc1c[nH]c3ccccc13)CC2" rule not met

Lab note: MEC threshold 4 µM. Does this compound come in strictly under it? "CCCCNc1nc(N)nc2c1CN(Cc1cc(F)cc(F)c1)CC2" rule met

Lab note: MEC threshold 4 µM. Does this compound come in strictly under it? "CCCCNc1nc(N)nc2c1CN(C(=O)C(C)C)CC2" rule not met

Lab note: MEC threshold 4 µM. Does this compound come in strictly under it? "CCCCNc1nc(N)nc2c1CCN(S(C)(=O)=O)C2" rule not met

Lab note: MEC threshold 4 µM. Does this compound come in strictly under it? "CCCCNc1nc(N)nc2c1CN(C(=O)c1ccccc1)CC2" rule met

Lab note: MEC threshold 4 µM. Does this compound come in strictly under it? "CCCCNc1nc(N)nc2c1CN(C(=O)c1csnn1)CC2" rule met

Lab note: MEC threshold 4 µM. Does this compound come in strictly under it? "CCCCNc1nc(N)nc2c1CN(Cc1ccncc1)CC2" rule not met

Lab note: MEC threshold 4 µM. Does this compound come in strictly under it? "CCCCNc1nc(N)nc2c1CN(Cc1ccc(C(C)(C)C)cc1)CC2" rule not met

Lab note: MEC threshold 4 µM. Does this compound come in strictly under it? "CCCCNc1nc(N)nc2c1CN(C(=O)c1cnccn1)CC2" rule met

Lab note: MEC threshold 4 µM. Does this compound come in strictly under it? "CCCCNc1nc(N)nc2c1CN(Cc1cccs1)CC2" rule met

Lab note: MEC threshold 4 µM. Does this compound come in strictly under it? "CCCCNc1nc(N)nc2c1CN(C(=O)c1cocn1)CC2" rule met

Lab note: MEC threshold 4 µM. Does this compound come in strictly under it? "CCCCNc1nc(N)nc2c1CN(Cc1cccc(OC)c1Cl)CC2" rule met

Lab note: MEC threshold 4 µM. Does this compound come in strictly under it? "CCCCNc1nc(N)nc2c1CN(Cc1ccc(C(F)(F)F)cc1)CC2" rule met

Lab note: MEC threshold 4 µM. Does this compound come in strictly under it? "CCCCNc1nc(N)nc2c1CN(CCc1ccccc1)CC2" rule met

Lab note: MEC threshold 4 µM. Does this compound come in strictly under it? "CCCCNc1nc(N)nc2c1CN(C(=O)C1CCC1)CC2" rule met
